# study-target: HLA-B1501 (Homo sapiens, UniProt P01889, A329T/A93T/A95T/C349S/D201E/D98Y/E187L/E204Q/E69M/E70A/K202T/N87E/Q94N/R155S/R180W/S121R/S35A/S48A/V306I/V36M/Y140S/Y91S)
# assay-summary: Competitive peptide binding assay, CIR-B1501
# recorded-conditions: HMy2.CIR-B1501 cells, reference Cy5-[…], class from inhibition at 5 and 15 μM, flow cytometry MFI; read-out: Binding affinity with HLA-B1501
Peptide text beside a SMILES is read from it.
Each entry below carries its recorded IC50.

Recorded IC50, per entry:
CC[C@H](C)[C@H](NC(=O)[C@H](C)NC(=O)[C@H](C)NC(=O)[C@H](CC(N)=O)NC(=O)CNC(=O)[C@H](CC(=O)O)NC(=O)[C@H](CCC(N)=O)NC(=O)[C@H](C)NC(=O)[C@@H](N)Cc1ccccc1)C(=O)O [Epitope Y246] (H-FAQDGNAAI-OH; N-terminus and C-terminus assumed) = > 15 µM
CC(C)C[C@H](NC(=O)[C@H](CC(C)C)NC(=O)[C@H](CC(C)C)NC(=O)[C@H](CC(N)=O)NC(=O)[C@H](CO)NC(=O)[C@H](CS)NC(=O)[C@H](CCC(=O)O)NC(=O)[C@@H](N)[C@@H](C)O)C(=O)N[C@@H](CCC(N)=O)C(=O)N[C@@H](Cc1ccc(O)cc1)C(=O)O [Epitope Y231] (H-TECSNLLLQY-OH; N-terminus and C-terminus assumed) = > 15 µM

Query: I'd like to know its IC50. The molecule in question is CC[C@H](C)[C@H](NC(=O)[C@H](CCC(N)=O)NC(=O)[C@@H](N)CC(C)C)C(=O)N1CCC[C@H]1C(=O)N[C@@H](Cc1ccccc1)C(=O)N[C@@H](C)C(=O)N[C@@H](CCSC)C(=O)N[C@@H](CCC(N)=O)C(=O)N[C@@H](CCSC)C(=O)O [Epitope Y81] (H-LQIPFAMQM-OH; N-terminus and C-terminus assumed)
Result: > 15 µM

* * *

# study-target: HLA-C0102 (Homo sapiens, UniProt P10321, A176E/A330V/A35S/A97T/C350S/D114A/D33F/L171W/L180R/L218V/M285V/M309V/M331V/P208H/Q277E/Q291P/R121W/R243W/R30K/S123C/S140Y/S297R/T329A/T363A/V272M/V319A)
# assay-summary: Competitive peptide binding assay, CIR-C0102
# recorded-conditions: HMy2.CIR-C0102 cells, reference Cy5-[…], class from inhibition at 5 and 15 μM, flow cytometry MFI; read-out: Binding affinity with HLA-C0102
Peptide text beside a SMILES is read from it.
value-type: IC50

Recorded IC50, per entry:
CC(C)C[C@H](NC(=O)[C@H](C)NC(=O)[C@@H](NC(=O)[C@H](Cc1ccccc1)NC(=O)[C@H](Cc1c[nH]c2ccccc12)NC(=O)[C@H](CO)NC(=O)[C@H](C)NC(=O)[C@@H](NC(=O)[C@@H](N)CC(N)=O)[C@@H](C)O)[C@@H](C)O)C(=O)O [Epitope M56, NTASWFTAL] (H-NTASWFTAL-OH; N-terminus and C-terminus assumed) = > 15 µM
CC(C)C[C@H](NC(=O)[C@@H](NC(=O)[C@@H](NC(=O)CNC(=O)[C@H](CCC(N)=O)NC(=O)[C@@H]1CCCN1C(=O)[C@H](CC(C)C)NC(=O)[C@H](CCC(N)=O)NC(=O)[C@H](CC(C)C)NC(=O)[C@@H](N)C(C)C)[C@@H](C)O)[C@@H](C)O)C(=O)O [Epitope M18] (H-VLQLPQGTTL-OH; N-terminus and C-terminus assumed) = 5 to 15 µM

Let's switch to this compound now.
Query: I'd like to know its IC50. The compound in question is CC(C)[C@H](NC(=O)CNC(=O)[C@H](CCCNC(=N)N)NC(=O)[C@@H](NC(=O)[C@H](Cc1ccccc1)NC(=O)[C@H](CO)NC(=O)[C@@H](N)CC(N)=O)[C@@H](C)O)C(=O)N[C@@H](Cc1ccc(O)cc1)C(=O)N[C@@H](Cc1ccc(O)cc1)C(=O)O [Epitope M129] (H-NSFTRGVYY-OH; N-terminus and C-terminus assumed)
Result: > 15 µM

Each recorded value in this set is attributed to paper PMC12133982.
